# Tested on: OVCAR-5 ovarian
# Procedure Text: NCI-60 one-dose screen, 48 h
# Measurement Conditions: 10 µM unless noted
# Experimental: Growth inhibition of the OVCAR-5 human tumor cell line is measured as a screen for anti-cancer activity. Cells are grown in 96 well plates and exposed to the test compound for 48 hours. Compounds are tested at a single concentration, which is 10^-5 M for most compounds. The reported endpoint is percent growth (GI% or GIPRCNT), where numbers from 0 - 100% represent growth inhibition, and numbers from -100% - 0 represent cell death. For example, a value of 40 represents 60% growth inhibition. […]
This is part of a sample that, as a whole, favours compounds with a hit. Of some 83,000 tested, about 20% had one in any assay. Calls of active or inactive are those of the source. The calls were made as follows: active = growth percent below 10; inactive = the rest.
Outcome codes: 1 (yes) (active), 0 (no) (inactive)

Compound | System Name | Class
O=C(/C=C/c1ccc(C(F)(F)F)cc1)c1ccc(Nc2nc(NCCO)nc(Nc3ccc(Cl)cc3)n2)cc1 | OVCAR-5 ovarian | 0 (no)
CC/C(=C(\CC)c1ccc(OCC[N+](C)(C)C)cc1)c1ccc(OC)cc1 | OVCAR-5 ovarian | 0 (no)
COc1c2ccoc2c(/C=C/C=O)c2oc(-c3ccccc3)cc(=O)c12 | OVCAR-5 ovarian | 0 (no)
O=C(Nc1nc2c(s1)CCc1c-2c(Br)n(Cc2ccccc2)c1Br)c1ccccc1 | OVCAR-5 ovarian | 0 (no)
COc1ccc(C2C3=C(COC3=O)N(CCO)c3cc4c(cc32)OCCO4)cc1 (stereo not given) | OVCAR-5 ovarian | 0 (no)
O=C(CCc1nnc2sc(-c3ccc(Cl)cc3Cl)nn12)c1nc2ncccc2[nH]1 | OVCAR-5 ovarian | 1 (yes)
COc1cc([C@@H]2NC(=O)NC(C)=C2C(=O)Nc2nc(-c3ccc(Cl)cc3)cs2)ccc1O | OVCAR-5 ovarian | 0 (no)
CCCCN1CCN(c2ccc3nc(-c4ccc5nc(-c6ccc(OCC)cc6)[nH]c5c4)[nH]c3c2)CC1 | OVCAR-5 ovarian | 0 (no)
CN1C(=O)N(C)C2Nn3c(s/c(=C4\C(=O)N(CCc5ccccc5)c5ccccc54)c3=O)=NC21 (stereo not given) | OVCAR-5 ovarian | 0 (no)
O=C1/C(=C\c2ccc[nH]2)c2ccccc2N1c1ccccc1 | OVCAR-5 ovarian | 0 (no)
COc1ccccc1N1CCN(C(CNS(=O)(=O)c2ccc(Cl)cc2)c2cccnc2)CC1 (stereo not given) | OVCAR-5 ovarian | 0 (no)
Cc1ccc(NCCNCC(O)CO)c2c(=O)c3ccccc3sc12 (stereo not given) | OVCAR-5 ovarian | 0 (no)
C=C1C(=O)O[C@H]2[C@H]1CC/C(COC(=O)/C=C\C(=O)O)=C\CC[C@@]1(C)O[C@@H]21 | OVCAR-5 ovarian | 0 (no)
CCN(CC)CCNC(=O)C(Cl)=C1C(Cl)=C(Cl)C(Cl)=C1Cl | OVCAR-5 ovarian | 0 (no)
COc1ccc(-c2nocc2-c2cccs2)cc1 | OVCAR-5 ovarian | 0 (no)
CCOC(=O)c1sc(-c2ccc(OS(=O)(=O)c3ccccc3[N+](=O)[O-])c(C=O)c2)nc1C | OVCAR-5 ovarian | 0 (no)
O=C(Nc1ccc(N2CCNCC2)cn1)c1[nH]ncc1Nc1ncnc2sccc12 | OVCAR-5 ovarian | 0 (no)
O=Cc1c(OCc2cnnn2CC(=O)Nc2ccc(Cl)cc2)ccc2ccccc12 | OVCAR-5 ovarian | 0 (no)
COc1ccc2c(c1)C=C1CSCC3=Cc4cc(OC)ccc4OC13O2 | OVCAR-5 ovarian | 0 (no)
Oc1ccc(-c2nc(-c3ccc4oc5ccc(-c6[nH]c(-c7ccc(O)cc7)nc6-c6ccccc6)cc5c4c3)c(-c3ccccc3)[nH]2)cc1 | OVCAR-5 ovarian | 0 (no)

* * *

Attribute: growth
# Test system: K-562 leukemia
# Procedure Text: NCI-60 one-dose screen, 48 h (100 = growth as untreated, 0 = no growth, -100 = all killed)
# Measurement Conditions: 10 µM unless noted
The panel holds about 83,000 compounds, 20% with a hit somewhere; the sample as a whole holds those more often.
Measurement Kind: growth (%)

Compound | Experimental Result
CN1CCN(c2nc(Nc3ccc(O)cc3)nc3ccccc23)CC1 | 42
Nc1cccc(Nc2cc(S(=O)(=O)O)c(N)c3c2C(=O)c2ccccc2C3=O)c1 | 101
CC1(O)COCCCCOc2c(CN)cccc2NC(=O)c2nc(cnc2N)-c2ccc(cc2)S(=O)(=O)C(C)(C)C1 (stereo not given) | 0.195
CCCCCCCCCCCCCCn1cc(C2=C(c3coc4ccc(OC)cc34)C(=O)NC2=O)c2ccccc21 | 121
CN1CCN(Cc2ccc(NC(=O)c3[nH]ncc3Nc3cc(OC4CCCC4)ncn3)cc2)CC1 | 1.53
CCc1ccc(CNCC(O)c2ccccc2)cc1 (stereo not given) | 22
COc1ccc(-c2nc(-c3ccccn3)c(-c3ccccn3)n2CC(C)C)cc1OC1CCCC1 | 10.4
O=C(NCc1ccccc1)C1CN(c2ccc(Cl)cc2)N(c2ccc(Cl)cc2)C1=O (stereo not given) | 35.1
NC1C(N)C(N)C1N (stereo not given) | 99.5
CN1C(=O)N(C)C2C1NN=c1s/c(=C\c3c[nH]c4ccccc34)c(=O)n12 (stereo not given) | 8.94
COc1ccc(/C=C2\CCC/C(=C\c3ccc(OC)c(OC)c3)C2=O)cc1OC | 10.6
CC(=O)Nc1nc2c(s1)CCc1c-2cn(S(=O)(=O)c2ccccc2)c1-c1ccccc1 | 37.9
COc1ccccc1N1C(=N)S/C(=C\c2ccc(OCc3ccccc3F)cc2)C1=O | 62.2
COc1c(B(O)O)cccc1-c1nc2ccc3n[nH]c(F)c3c2c2c1CCCC2 | 92.9
COc1cc(C2C3=C(COC3=O)N(CCO)c3cc4c(cc32)CCC4)cc(OC)c1O (stereo not given) | 14.7
Cc1ccc(NCCNCC(O)CO)c2c(=O)c3ccccc3sc12 (stereo not given) | -13.4
Fc1ccc(Oc2ccc(Nc3ncnc4onc(-c5ccccc5)c34)cc2)cc1 | 113
CSc1nc2c(c(=O)[nH]1)N=C1c3ccccc3C(=O)C1C(c1ccccc1)N2 (stereo not given) | 34.8
CC1=NCC2NC(=O)NC(C)=C12 (stereo not given) | 110
COC(=O)/C(CCC=C(C)C)=C1\[C@@H](OC(C)=O)C[C@@]2(C)[C@H]1CC(=O)N[C@H]1[C@@]3(C)CCNC(=O)[C@@H](C)[C@@H]3CC[C@@]12C | 101

* * *

# Test system: PC-3 prostate
# Procedure Text: NCI-60 one-dose screen, 48 h (100 = growth as untreated, 0 = no growth, -100 = all killed)
# Measurement Conditions: 10 µM unless noted
About 83,000 compounds went through this panel and 20% of them were active in at least one assay; those are over-represented in the sample as a whole.
Measurement Kind: growth (%)

Compound | Measurement Kind | Experimental Result
CC(=O)c1ccc(Cc2ccc(C(C)=O)s2)s1 | growth | 93.8
COC(=O)C1(C)COP(=O)(Nc2ccc(OC)cc2)OC1 (stereo unspecified) | growth | 99.8
CC/C(=C(\CC)c1ccc(OCC[N+](C)(C)C)cc1)c1ccc(OC)cc1 | growth | 41.6
COc1ccc(Cn2c(Br)c3c(c2Br)-c2nc(N)sc2CC3)cc1 | growth | 56.6
O=c1c(-c2nc3ccccc3[nH]2)cc2ccccc2n1Cc1cn(Cc2ccc(N3CCOCC3)cc2)nn1 | growth | 65.9
CCOc1c(Br)cc(C2C(C(=O)OC)=CN(C)C=C2C(=O)OC)cc1OC | growth | 60.7

* * *

# Tested on: DU-145 prostate
# Procedure Text: NCI-60 one-dose screen, 48 h
# Measurement Conditions: 10 µM unless noted
About 83,000 compounds went through this panel and 20% of them were active in at least one assay; those are over-represented in the sample as a whole. Activity calls are given as the source filed them. Rule for the calls: active = growth percent below 10; inactive = the rest.
Outcome codes: active, inactive

Compound | Class
Fc1cccc(COc2ccc(Nc3ncnc4onc(-c5ccccc5)c34)cc2)c1 | active
COc1ccc(/C=C/C(=O)c2c(C)nc3ccccc3c2/C=C/c2ccccc2)cc1O | inactive
O=C1CCC(N2C(=O)c3cccc(NCCCCCCOc4ccc(Nc5nccc(Nc6ccccc6)n5)cc4)c3C2=O)C(=O)N1 (stereo not given) | inactive
C[C@@H](C(=O)NCCCC#Cc1cnc(Nc2ccc(C#N)cc2)nc1NC1CC1)N(C)C(=O)/C=C/CN(C)C | inactive
Cc1ccc(C2CC(c3ccc(Nc4nc(NCCO)nc(Nc5ccc(Cl)cc5)n4)cc3)=NN2c2cc(Cl)cc(Cl)c2)cc1 (stereo not given) | inactive
O=C(c1ccccc1)N(C(=S)NCCc1ccc(Cl)cc1)c1ccccc1 | inactive
O=C1NC(=S)NC(=O)C1=Cc1cn(Cc2cn(Cc3cccc4ccccc34)nn2)c2ccccc12 | inactive
c1ccc(-c2ccc(-c3nc4ccccc4[nH]3)cc2)cc1 | inactive
COc1nccc2cc3c(=O)n4c(cc5ccccc54)c(=O)n3c12 | inactive
COc1ccc(/C=C2\SC(=Nc3ccccc3)NC2=O)cc1 | active
O=c1oc2ccc(F)cc2c(=O)n1-c1ccc(Cl)cc1F | inactive
O=C(Cn1cc(COc2ncnc3c2cnn3-c2ccccc2)nn1)Nc1ccccn1 | inactive
CCOC(=O)c1ccc2[nH]c(-c3ccccc3)cc(=O)c2c1 | inactive
O=C(Nc1nc2c(s1)CCc1c-2c(Br)n(Cc2ccccc2)c1Br)c1ccccc1 | inactive
Nc1ccc(-c2nn3c(CCC(=O)c4nc5ncccc5[nH]4)nnc3s2)c(O)c1 | inactive
CCn1c(Cc2ccccc2Nc2c(Cl)cccc2Cl)nnc1SCC(=O)NN1C(=O)/C(=C/c2cccc(OC)c2OC)SC1=S | inactive
O=C(c1ccccc1)N(C(=S)NCCc1ccc(Cl)cc1)c1ccc(Cl)cc1 | inactive
O=C(/C=C/c1ccc(Cl)cc1)c1ccc(Nc2nc(NCCO)nc(Nc3ccc(Cl)cc3)n2)cc1 | inactive
O=C(Nc1ccc(I)cc1F)c1cc(Cl)ccc1O | inactive
CCCN1C(=O)N(CCC)C2C1NN=c1s/c(=C3\C(=O)N(C(C)C)c4ccccc43)c(=O)n12 (stereo not given) | inactive
